- Test description: Solubility of crystal form I in common solvents
- Type: physicochemical
- Experimental parameters: organic solvent or mixture, thermodynamic from solid; acetonitrile, ambient temperature
Measured parameter: solubility
# do not omit the unit; it follows the number

For reference, reported solubility for CS(=O)(=O)C1(c2cc(-c3cnc(N)cc3Cl)nc(N3CCOCC3)n2)CC1 [crystal form I] stands at 13.7 mg/mL

---

- Test description: Solubility of crystal form I in common solvents
- Format: physicochemical
- Experimental parameters: organic solvent or mixture, thermodynamic from solid; ethyl acetate, ambient temperature
- Method: The solubility of the crystal form I in 11 common solvents at ambient temperature was tested. […] The peak area was recorded and the standard curve was plotted, and the curve equation: y=11.30762x, R^2=0.99998, which has a good linear correlation in a range of 4.9 μg/ml˜499 μg/ml was obtained. […] The supernatant was drawn and diluted at a certain multiple, injected to the HPLC, the peak area was recorded, the sample concentration was calculated, and the pH of undiluted samples was determined.
Measured parameter: solubility (mg/mL)
All answers are understood in mg/mL, so give the number only.

For reference, reported solubility for CS(=O)(=O)C1(c2cc(-c3cnc(N)cc3Cl)nc(N3CCOCC3)n2)CC1 [crystal form I] stands at 12.4

---

- Test description: Solubility experiment in 0.1M HCl, buffers and water
- Format: physicochemical
- Experimental parameters: pH 6.8 buffer, ambient temperature
Quick list: Solubility (mg/mL) pH 6.8 per entry.
All answers are understood in mg/mL, so give the number only.

Sample answers from the record:
CS(=O)(=O)C1(c2cc(-c3cnc(N)cc3Cl)nc(N3CCOCC3)n2)CC1 [crystal form D-2]: 0.013
CS(=O)(=O)C1(c2cc(-c3cnc(N)cc3Cl)nc(N3CCOCC3)n2)CC1 [crystal form C]: 0.010
CS(=O)(=O)C1(c2cc(-c3cnc(N)cc3Cl)nc(N3CCOCC3)n2)CC1 [crystal form A]: 0.012

For reference, reported Solubility (mg/mL) pH 6.8 for CS(=O)(=O)C1(c2cc(-c3cnc(N)cc3Cl)nc(N3CCOCC3)n2)CC1 [crystal form B-1] stands at 0.012

---

- Test description: Solid phase stability experiment (sealed at 60° C., HPLC purity)
- Format: physicochemical
- Experimental parameters: 60° C.-7 days, sealed
Measured parameter: Total impurities (%)
All answers are understood in %, so give the number only.

CS(=O)(=O)C1(c2cc(-c3cnc(N)cc3Cl)nc(N3CCOCC3)n2)CC1 [crystal form C]: 0.26

For reference, reported Total impurities (%) for CS(=O)(=O)C1(c2cc(-c3cnc(N)cc3Cl)nc(N3CCOCC3)n2)CC1 [crystal form B-1] stands at 0.50

For reference, reported Total impurities (%) for CS(=O)(=O)C1(c2cc(-c3cnc(N)cc3Cl)nc(N3CCOCC3)n2)CC1 [crystal form A] stands at 0.22

For reference, reported Total impurities (%) for CS(=O)(=O)C1(c2cc(-c3cnc(N)cc3Cl)nc(N3CCOCC3)n2)CC1 [crystal form D-2] stands at 1.78

---

- Test description: Solid phase stability experiment (sealed at 60° C., HPLC purity)
- Assay type: physicochemical
- Experimental parameters: 60° C.-0 day
- Procedure: 5 mg of samples were weighed and sealed at 60° C., respectively. Another set of samples were sealed and stored at −20° C. as a control at the same time. All samples were characterized by HPLC at 7 days and 21 days to detect changes in purity.
Measured parameter: Purity (%)
# do not omit the unit; it follows the number

Sample answers from the record:
CS(=O)(=O)C1(c2cc(-c3cnc(N)cc3Cl)nc(N3CCOCC3)n2)CC1 [crystal form C]: 99.73%
CS(=O)(=O)C1(c2cc(-c3cnc(N)cc3Cl)nc(N3CCOCC3)n2)CC1 [crystal form A]: 99.73%
CS(=O)(=O)C1(c2cc(-c3cnc(N)cc3Cl)nc(N3CCOCC3)n2)CC1 [crystal form D-2]: 98.37%

Now examine the next entry.
For reference, reported Purity (%) for CS(=O)(=O)C1(c2cc(-c3cnc(N)cc3Cl)nc(N3CCOCC3)n2)CC1 [crystal form B-1] stands at 99.74%
